# assayProcedure: xn = mol fraction of the nth substance listed
# conditionDetails: 308.15 K; 101 kPa; Liquid; x1 = 0.8
Readings of mass density for the listed compounds
Report as a plain number; the unit kg/m3 is understood.

Below: 4 compounds and their reported mass density.
**Query** Item CCCC(=O)OCCC(C)C [3-methylbutyl butanoate] + CCO has what recorded mass density?
**Result** 843.5

**Query** Item CCCCCC(=O)OCC [ethyl hexanoate] + CCO has what recorded mass density?
**Result** 849.63

**Query** Item CCCCCCCC(=O)OCC [ethyl octanoate] + CCO has what recorded mass density?
**Result** 847.64

**Query** Item CCOC(=O)Cc1ccccc1 [ethyl phenylacetate] + CCO has what recorded mass density?
**Result** 997.48

// switching to the query compound
**Query** Item CCOC(=O)c1ccccc1 [ethyl benzoate] + CCO has what recorded mass density?
**Result** 1008.72
